Parameter efflux ratio: see the listing below.
# Protocol Details: Efflux ratio of apparent permeability across basolateral to apical side over apical to basolateral side in human Caco-2 cells
# Type: ADME, cell-based
Quantity Kind: efflux ratio

Structure Smiles | Quantity Kind | Recorded Result
COC(=O)N[C@@H]1C(=O)N2C[C@H]3[C@@H]([C@H]2C(=O)N[C@H](C#N)C[C@@H]2C[C@H](NC2=O)C(=O)OCC1(C)C)C3(C)C | efflux ratio | 30
Cc1cccc(C)c1OCC(=O)N[C@@H]1C(=O)N2C[C@H]3[C@@H]([C@H]2C(=O)N[C@H](C#N)C[C@@H]2C[C@H](NC2=O)C(=O)NCC1(C)C)C3(C)C | efflux ratio | 64
CC1(C)COC(=O)[C@@H]2C[C@@H](C[C@@H](C#N)NC(=O)[C@@H]3[C@@H]4[C@H](CN3C(=O)[C@H]1NC(=O)C(F)(F)Cc1ccccc1)C4(C)C)C(=O)N2 | efflux ratio | 154
CC1(C)CCOC(=O)[C@@H]2C[C@@H](C[C@@H](C#N)NC(=O)[C@@H]3[C@@H]4[C@H](CN3C(=O)[C@H]1NC(=O)C(F)(F)F)C4(C)C)C(=O)N2 | efflux ratio | 342
CC1(C)COC(=O)[C@@H]2C[C@@H](C[C@@H](C#N)NC(=O)[C@@H]3[C@@H]4[C@H](CN3C(=O)[C@H]1NC(=O)C(F)(F)c1ccc(F)cc1)C4(C)C)C(=O)N2 | efflux ratio | 206
CC1(C)COC(=O)[C@@H]2C[C@@H](C[C@@H](C#N)NC(=O)[C@@H]3[C@@H]4[C@H](CN3C(=O)[C@H]1NC(=O)C(F)(F)F)C4(C)C)C(=O)N2 | efflux ratio | 34
CC1(C)COC(=O)[C@@H]2C[C@@H](C[C@@H](C#N)NC(=O)[C@@H]3[C@@H]4[C@H](CN3C(=O)[C@H]1NC(=O)C1CC1)C4(C)C)C(=O)N2 | efflux ratio | 22
CN1CC(C)(C)[C@H](NC(=O)OCc2ccccc2)C(=O)N2C[C@H]3[C@@H]([C@H]2C(=O)N[C@H](C#N)C[C@@H]2C[C@H](NC2=O)C1=O)C3(C)C | efflux ratio | 12
